Where do the numbers come from? From patent US10392404B2.

# study-target: b-Raf (V600E) (Homo sapiens, UniProt P15056, V600E)
# Construct: made in house
# Sequence (P15056 whole entry V600E): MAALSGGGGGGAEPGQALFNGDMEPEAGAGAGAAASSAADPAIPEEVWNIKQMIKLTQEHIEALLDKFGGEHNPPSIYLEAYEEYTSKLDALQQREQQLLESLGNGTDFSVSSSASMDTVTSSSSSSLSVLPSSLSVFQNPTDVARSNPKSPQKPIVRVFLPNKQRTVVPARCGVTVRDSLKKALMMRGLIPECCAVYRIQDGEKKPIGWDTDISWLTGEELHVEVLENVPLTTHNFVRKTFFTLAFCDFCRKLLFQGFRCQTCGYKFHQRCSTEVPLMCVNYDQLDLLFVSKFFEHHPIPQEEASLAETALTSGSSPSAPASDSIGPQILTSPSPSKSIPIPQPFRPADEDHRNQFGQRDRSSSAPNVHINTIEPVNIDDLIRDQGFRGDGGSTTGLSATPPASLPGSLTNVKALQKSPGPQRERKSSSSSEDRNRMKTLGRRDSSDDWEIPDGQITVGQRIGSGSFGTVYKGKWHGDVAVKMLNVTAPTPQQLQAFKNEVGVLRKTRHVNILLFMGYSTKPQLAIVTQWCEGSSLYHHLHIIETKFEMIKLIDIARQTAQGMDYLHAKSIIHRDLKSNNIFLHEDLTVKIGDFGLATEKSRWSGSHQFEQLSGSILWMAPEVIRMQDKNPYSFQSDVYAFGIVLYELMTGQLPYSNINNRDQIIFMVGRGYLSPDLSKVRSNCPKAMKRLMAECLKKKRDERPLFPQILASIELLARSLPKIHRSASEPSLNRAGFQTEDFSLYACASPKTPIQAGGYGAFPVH
# assay-text: In vitro Raf activity determination (Alpha Screen, biotinylated kinase-dead MEK1 substrate), B-Raf
# Type: biochemical
# measurement-conditions: b-Raf (V600E) approximately 4 pM; ATP 10 μM; pre-incubation 60 minutes; reaction 3 hours at room temperature
Could you please mark Yes for values of IC50 below 3 nM and No for values at or above it?

Known results for molecules:
>>> label_class("Cc1ccc(NC(=O)c2cccc(C(F)(F)F)c2)cc1-c1cc(C#N)c[nH]c1=O [Example 14]")
"No"
>>> label_class("CCCNc1ncc(-c2cc(NC(=O)c3ccnc(C(F)(F)F)c3)ccc2C)cc1C#N [Example 40]")
"Yes"
>>> label_class("Cc1ncc(NC(=O)c2cc(C(F)(F)F)ccn2)cc1-c1cnc(N2CC(C)(O)C2)c(C#N)c1 [Example 225]")
"No"

Req: API: query returns whether the molecule falls strictly under 3 nM in IC50. Query: Cc1ncc(NC(=O)c2ccnc(C3(C#N)CC3)c2)cc1-c1cnc(C2CCOCC2)c(C#N)c1 [Example 148]
Resp: No

Req: API: query returns whether the molecule falls strictly under 3 nM in IC50. Query: CCn1cc(C(=O)Nc2cnc(C)c(-c3cnc(N4CC(C)(O)C4)c(C#N)c3)c2)cc(C(F)(F)F)c1=O [Example 191]
Resp: No

Req: API: query returns whether the molecule falls strictly under 3 nM in IC50. Query: Cc1ccc(NC(=O)c2ccnc(C(C)(C)C#N)c2)cc1-c1cnc(N2CCNCC2)c(C#N)c1 [Example 151]
Resp: Yes

###

# study-target: C-RAF (Homo sapiens, UniProt P04049, Y340E/Y341E)
# Construct: His tag (implied by nickel chromatography) (cleaved yes); StrepII tag (cleaved yes); MEK1 substrate from E. coli
# Sequence (P04049 whole entry Y340E/Y341E): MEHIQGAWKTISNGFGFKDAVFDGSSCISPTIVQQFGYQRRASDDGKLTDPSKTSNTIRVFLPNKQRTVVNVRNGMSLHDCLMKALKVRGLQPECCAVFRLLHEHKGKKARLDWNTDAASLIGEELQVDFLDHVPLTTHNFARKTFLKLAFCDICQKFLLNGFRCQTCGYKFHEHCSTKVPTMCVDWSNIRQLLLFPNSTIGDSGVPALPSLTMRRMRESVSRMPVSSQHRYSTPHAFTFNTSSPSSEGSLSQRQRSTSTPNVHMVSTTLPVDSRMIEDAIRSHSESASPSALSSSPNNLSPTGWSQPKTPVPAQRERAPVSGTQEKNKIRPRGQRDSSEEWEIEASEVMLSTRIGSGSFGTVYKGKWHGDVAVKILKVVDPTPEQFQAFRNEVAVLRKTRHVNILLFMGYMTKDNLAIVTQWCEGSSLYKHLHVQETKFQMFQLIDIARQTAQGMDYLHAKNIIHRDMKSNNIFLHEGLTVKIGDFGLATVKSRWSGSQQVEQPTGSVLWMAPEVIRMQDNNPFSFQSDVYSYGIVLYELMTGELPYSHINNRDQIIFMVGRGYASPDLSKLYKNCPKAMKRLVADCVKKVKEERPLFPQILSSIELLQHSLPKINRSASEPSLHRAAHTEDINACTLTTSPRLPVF
# Sequence (P63104 whole entry partner): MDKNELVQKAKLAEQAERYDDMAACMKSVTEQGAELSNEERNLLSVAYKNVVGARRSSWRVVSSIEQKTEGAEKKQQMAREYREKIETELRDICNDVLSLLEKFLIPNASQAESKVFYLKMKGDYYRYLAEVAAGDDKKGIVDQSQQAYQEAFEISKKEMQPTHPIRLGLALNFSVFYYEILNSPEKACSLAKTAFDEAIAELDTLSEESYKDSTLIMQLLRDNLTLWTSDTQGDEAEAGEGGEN
# assay-text: In vitro Raf activity determination (Alpha Screen, biotinylated kinase-dead MEK1 substrate), C-Raf
# measurement-conditions: c-Raf approximately 4 nM; ATP 1 μM; pre-incubation 60 minutes; reaction 1 hour at room temperature
test-readout: IC50 (nM)
Numbers only here, please. The scale is nM.

Reading of IC50 for Cc1ncc(NC(=O)c2cc(C(C)(C)F)ccn2)cc1-c1cnc(N2CC(C)(O)C2)c(C#N)c1 with C-RAF (Homo sapiens, UniProt P04049, Y340E/Y341E): 1.03

Reading of IC50 for Cc1ncc(NC(=O)c2ccnc(C(F)(F)F)c2)cc1-c1cnc(NC2CCOCC2)c(C#N)c1 with C-RAF (Homo sapiens, UniProt P04049, Y340E/Y341E): 0.478

Reading of IC50 for CNc1ncc(-c2cc(NC(=O)c3cccc(C(F)(F)F)c3)ccc2C)cc1C#N with C-RAF (Homo sapiens, UniProt P04049, Y340E/Y341E): 0.18

Reading of IC50 for Cc1ccc(NC(=O)c2cc(C(C)(C)N)cc(C(F)(F)F)c2)cc1-c1cnc(N2CCOCC2)c(C#N)c1 with C-RAF (Homo sapiens, UniProt P04049, Y340E/Y341E): 0.653

###

# study-target: b-Raf (V600E) (Homo sapiens, UniProt P15056, V600E)
# assay-text: In vitro Raf activity determination (Alpha Screen, biotinylated kinase-dead MEK1 substrate), B-Raf
# measurement-conditions: b-Raf (V600E) approximately 4 pM; ATP 10 μM; pre-incubation 60 minutes; reaction 3 hours at room temperature
pIC50: −log10 of the molar value.
Classify as follows. Reported pIC50 greater than or equal to 9: 1.0. Reported pIC50 below: 0.0.

>>> label_class("CCn1cc(C(=O)Nc2ccc(C)c(-c3cnc(N(C)C)c(C#N)c3)c2)cc(C(F)(F)F)c1=O")
0.0

Shifting focus to the compound that follows.
Req: Hi team, for Cc1ncc(NC(=O)c2ccnc(C(C)(C)C#N)c2)cc1-c1cnc(N2CCOCC2)c(C#N)c1 , is the recorded pIC50 at or above 9?
Resp: 0.0
